# Target: T1, mouse DLL4 extracellular domain (mouse, UniProt Q9JI71 27-532)
# T1 construct: extracellular domain; also called muDLL4 ECD; murine DLL4
# T1 sequence (Q9JI71 27-532): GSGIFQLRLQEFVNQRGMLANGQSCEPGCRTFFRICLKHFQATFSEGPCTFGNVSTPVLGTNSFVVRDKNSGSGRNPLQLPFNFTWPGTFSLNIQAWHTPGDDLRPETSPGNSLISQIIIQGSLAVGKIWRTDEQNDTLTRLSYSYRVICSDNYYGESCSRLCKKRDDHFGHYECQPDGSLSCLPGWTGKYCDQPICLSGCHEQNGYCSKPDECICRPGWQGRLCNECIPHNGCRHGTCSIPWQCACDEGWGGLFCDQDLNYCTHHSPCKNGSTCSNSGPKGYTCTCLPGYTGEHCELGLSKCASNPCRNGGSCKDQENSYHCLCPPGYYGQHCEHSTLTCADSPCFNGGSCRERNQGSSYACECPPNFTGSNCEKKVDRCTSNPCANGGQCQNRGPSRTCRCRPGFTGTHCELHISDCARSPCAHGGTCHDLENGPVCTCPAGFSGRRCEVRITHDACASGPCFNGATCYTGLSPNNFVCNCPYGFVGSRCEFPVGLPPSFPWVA
# Protocol Notes: competition ELISA vs Notch-1
# Procedure: Plates were then washed 3 times with wash buffer (PBS, 0.05% Tween-20) and blocked with 200 μl/well blocking buffer (D-PBS, 1% BSA, 1 mM CaCl₂, 0.05% Tween-20) for 1 hour at 25° C. […] After a final wash, plates were developed using 100 μl/well substrate (TMB Sigma #T8665), and the reaction was stopped using 100 μl/well 1N HCl, and the absorbance was read at 450 nm. […]
Items are presented alongside their recorded IC50.
The reply should contain only the number, in nM.

Memo: 1A11 rat anti-DLL4 monoclonal antibody (antibody, rat IgG1, V domains shown, rat IgG1/K hybridoma mAb; also called MC13-1A11.2E1; 1A11 (rat mAb)) VH: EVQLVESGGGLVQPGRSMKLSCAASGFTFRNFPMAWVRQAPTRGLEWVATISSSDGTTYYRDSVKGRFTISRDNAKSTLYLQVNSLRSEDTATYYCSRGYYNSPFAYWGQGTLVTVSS VL: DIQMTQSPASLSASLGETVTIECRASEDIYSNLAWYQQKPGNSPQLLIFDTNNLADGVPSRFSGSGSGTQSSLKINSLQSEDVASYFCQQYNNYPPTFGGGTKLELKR , reported IC50: 1.1

Value of IC50 reported for the binder h1A11.14 (antibody, V domains shown, humanized IgG; also called VH.2a/VL.1a 1A11) VH: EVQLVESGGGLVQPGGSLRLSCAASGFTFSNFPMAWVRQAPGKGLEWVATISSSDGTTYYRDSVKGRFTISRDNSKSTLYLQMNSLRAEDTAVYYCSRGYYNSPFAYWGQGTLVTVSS VL: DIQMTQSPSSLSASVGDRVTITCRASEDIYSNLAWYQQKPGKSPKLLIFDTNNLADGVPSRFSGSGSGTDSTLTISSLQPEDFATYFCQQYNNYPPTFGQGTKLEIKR is 0.7

Now for a further binder.
The value of IC50 measured for the binder h1A11.9 (antibody, V domains shown, humanized IgG; also called VH.1b/VL.1 1A11) VH: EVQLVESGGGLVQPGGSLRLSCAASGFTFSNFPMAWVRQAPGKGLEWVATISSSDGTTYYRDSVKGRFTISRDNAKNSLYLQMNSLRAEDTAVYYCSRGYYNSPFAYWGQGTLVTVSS VL: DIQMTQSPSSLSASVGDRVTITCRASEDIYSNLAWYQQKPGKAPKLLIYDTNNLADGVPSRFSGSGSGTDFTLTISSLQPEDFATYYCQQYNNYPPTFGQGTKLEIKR turned out to be 0.9

Source listed as patent US20110217237A1.
